Tested on: SNB-75 CNS
TEST_DESCRIPTION: NCI-60 one-dose screen, 48 h (100 = growth as untreated, 0 = no growth, -100 = all killed)
RECORDED_CONDITIONS: 10 µM unless noted
Compounds without any hit were thinned out: in the full panel of roughly 83,000, 20% have a hit.
Provide the reported growth of each item.
Please respond with the number in % and leave the unit unwritten.

Provide value of growth for this record tested with SNB-75 CNS: Oc1ccc(Cl)cc1-c1cc(-c2ccc(Cl)cc2)n[nH]1 59.1

Consider next the compound CCCCCCCCCCCCCCCCC(Br)C(=O)O (stereo unspecified) in the same way. 86.5

Consider next the compound CC(=O)Oc1cccc(OC(C)=O)c1OC(C)=O in the same way. 88.4

Consider next the compound O=C1c2ccccc2C(=O)c2c1oc1oc3c(c(=O)c21)c(=O)n(-c1ccccc1)c1ccccc31 in the same way. 31.8

Consider next the compound CCCCCCc1nc2c(c(C)nn2-c2ccccc2)c2c1CCCCC2 in the same way. 105

Consider next the compound C#CCN1C(=O)/C(=c2\sc3n(c2=O)NC2C(N=3)N(CC)C(=O)N2CC)c2ccccc21 (stereo unspecified) in the same way. 14.2

Consider next the compound O=[N+]([O-])c1cc(S(=O)(=O)OCC2CO2)ccc1Cl (stereo unspecified) in the same way. 89.9

Consider next the compound COC(=O)CCCCN=Cc1c(O)c(O)c(C(C)C)c2cc(C)c(-c3c(C)cc4c(C(C)C)c(O)c(O)c(C=NCCCCC(=O)OC)c4c3O)c(O)c12 in the same way. 42.6

Consider next the compound Cc1ccc(OCCn2c(C)nn(-c3ccc(Cl)cc3)c2=O)cc1 in the same way. 82.6

Consider next the compound CC(=O)c1cc(C(=O)c2ccc3c(c2)Sc2ccccc2N3)c2cc(C)ccn12 in the same way. 9.11

Consider next the compound COc1cc(/C=C2\C=C(c3ccc(F)cc3)N(Cc3ccccc3)C2=O)cc(OC)c1OC in the same way. 70.8

Consider next the compound CSc1ccccc1C#C/C=C\C#Cc1ccccc1N1CCCC1=O in the same way. 47

Consider next the compound COc1cc2nc(Cl)nc(NCCO)c2cc1OC in the same way. 86.1

Consider next the compound O=C(/C=C/c1ccccc1)n1c(-c2ccc(Cl)cc2)nc2ccccc21 in the same way. 18.1

Consider next the compound CCc1cccc(C)c1NC(=O)c1sc2nc3c(cc2c1N)C(=O)CCC3 in the same way. -2.83

Consider next the compound Nc1c(C(=O)Nc2cccc(C(F)(F)F)c2)sc2nc3c(cc12)C(O)CCC3 (stereo unspecified) in the same way. -6.78

Consider next the compound CC1CCc2c(sc(NC(=O)CSc3nnc4ccccn34)c2C(N)=O)C1 (stereo unspecified) in the same way. 104

Consider next the compound CCN(CC)CCC(=O)c1cccc2ccccc12 in the same way. 101

Consider next the compound O=C1N=C(c2c(-c3[nH]c(=O)c4ccc(Br)cc4c3O)c(O)c3ccccc3c2O)C(=O)c2cc(Br)ccc21 in the same way. -35.8

Consider next the compound COc1cc(-c2csc(NC(=O)c3cc(C(F)(F)F)cc(C(F)(F)F)c3)n2)cc(OC)c1OC in the same way. 52.5

Consider next the compound Cc1sc(N=Nc2ccc(N(C)C)cc2)[n+]([O-])c1C in the same way. 82.5
